- targetUnderTest: Arachidonate 5-lipoxygenase (Bos taurus, UniProt Q9BEG3)
- Sequence (Q9BEG3 whole entry): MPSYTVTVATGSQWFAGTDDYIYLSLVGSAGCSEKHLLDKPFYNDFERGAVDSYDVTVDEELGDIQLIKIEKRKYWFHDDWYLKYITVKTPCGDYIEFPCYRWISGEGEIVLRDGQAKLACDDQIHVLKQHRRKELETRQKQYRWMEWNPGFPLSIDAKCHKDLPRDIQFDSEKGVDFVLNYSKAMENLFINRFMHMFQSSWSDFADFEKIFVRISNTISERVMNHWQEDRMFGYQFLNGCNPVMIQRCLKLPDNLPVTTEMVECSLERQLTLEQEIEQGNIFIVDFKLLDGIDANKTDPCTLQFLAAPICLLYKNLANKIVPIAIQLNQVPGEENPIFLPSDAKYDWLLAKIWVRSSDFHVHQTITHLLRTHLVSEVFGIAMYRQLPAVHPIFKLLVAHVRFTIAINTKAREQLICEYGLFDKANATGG
- testDetails: 5-LO inhibitory activity was determined by inhibition of LTB4 biosynthesis in bovine polymorphonuclear leukocytes (PMNL)
For each record, write down the corresponding IC50.

Recorded IC50, per entry:
- chemicalSmiles: "Nc1cccc2c1C(=O)c1ccccc1C2"
  result: "28 µM"
- chemicalSmiles: "O=C1c2c(O)cccc2C(Br)c2cccc(O)c21"
  result: "> 30 µM"
- chemicalSmiles: "O=C1c2c(O)cccc2C(OCc2ccccc2)c2cccc(O)c21"
  result: "> 30 µM"

// each compound listed below needs its IC50
1. N=C1c2c(O)cccc2Cc2cccc(O)c21
2. O=C1c2c(O)cccc2C(Cc2ccccc2)(Cc2ccccc2)c2cccc(O)c21
3. CCCCc1ccc2c(c1O)C(=O)c1c(O)cccc1C2
4. CN(C)C=C1c2cccc(O)c2C(=O)c2c(O)cccc21
5. COC(=O)c1cc(O)c2c(c1)Cc1cccc(O)c1C2=O

## Output
> 30 µM
> 30 µM
> 30 µM
21 µM
> 30 µM

###

- testDetails: Partition coefficient (logP)
- Type: physicochemical
- testSettings: octanol/water
For each record, write down the corresponding logP.
Give bare numbers.

Recorded logP, per entry:
- chemicalSmiles: "O=C1C=CC(=O)c2c(O)ccc(O)c21"
  logP: 3.7
- chemicalSmiles: "O=C1c2ccccc2Cc2ccccc21"
  logP: 3.46
- chemicalSmiles: "O=C1c2cccc(O)c2C(=O)c2c(O)cccc21"
  logP: 4.16
- chemicalSmiles: "O=C1c2cccc(O)c2Cc2c(O)cccc21"
  logP: 2.17

// each compound listed below needs its logP
1. CC(=O)C1c2cccc(O)c2C(=O)c2c(O)cccc21
2. O=C1c2cccc(Cl)c2Cc2c(Cl)cccc21
3. O=C1c2c(O)cccc2Cc2cc(CO)cc(O)c21
4. O=C1c2ccccc2Cc2cccc(O)c21
5. O=C1c2c(Cl)cccc2Cc2cccc(Cl)c21
6. O=C1c2cccc(OCc3ccccc3)c2Cc2c(OCc3ccccc3)cccc21

## Output
[3.49, 5.05, 3.37, 3.99, 3.51, 5.73]

// each compound listed below needs its logP
1. COc1cccc2c1Cc1c(O)cccc1C2=O
2. CCSC1c2cccc(O)c2C(=O)c2c(O)cccc21
3. O=C1c2c(O)cccc2C(OCc2ccccc2)c2cccc(O)c21
4. O=C1c2c(O)cccc2C(O)c2cccc(O)c21
5. CCCCC(=O)C1c2cccc(O)c2C(=O)c2c(O)cccc21

## Output
2.6
2.97
4.25
2.91
4.12

// each compound listed below needs its logP
1. N#Cc1ccc2c(c1O)C(=O)c1c(O)cccc1C2
2. CN(C)C=C1c2cccc(O)c2C(=O)c2c(O)cccc21
3. COc1cccc2c1C(=O)c1c(cccc1OC)C2
4. c1ccc2c(c1)Cc1ccccc1C2

## Output
1: 3.16; 2: 3.18; 3: 3.88; 4: 4.06

// each compound listed below needs its logP
1. N=C1c2c(O)cccc2Cc2cccc(O)c21
2. O=Cc1ccc2c(c1O)C(=O)c1c(O)cccc1C2
3. COC1c2cccc(O)c2C(=O)c2c(O)cccc21
4. O=C1c2c(O)cccc2C(Cc2ccccc2)c2cccc(O)c21
5. O=C1c2ccccc2Cc2c1ccc(O)c2O
6. O=C1c2cccc(O)c2Cc2cccc(O)c21

## Output
1. 4.72
2. 4.06
3. 3.96
4. 4.5
5. 3.81
6. 3.51

## Input What value of logP has been reported for the following compound? O=C1c2c(O)cccc2C(Br)c2cccc(O)c21
## Output 3.94
